GI50 values recorded for MDA-MB-435
READOUT_NAME: GI50

>  <MOLECULE>
O=C(/C=C/c1ccccn1)c1ccc(OCc2nnc(-c3ccc(Cl)cc3)o2)cc1

>  <RESULT>
1710 nM

$$$$
>  <MOLECULE>
COc1ccc(-c2cc(-c3ccc(Cl)cc3)nc(NCCCCNc3ccnc4cc(Cl)ccc34)n2)cc1

>  <RESULT>
1790 nM

$$$$
>  <MOLECULE>
CCCCOc1ccc(/C=N/Nc2cc(C)nc3ccc(Br)cc23)cc1

>  <RESULT>
1800 nM

$$$$
>  <MOLECULE>
C=C1C(=O)O[C@H]2[C@H]1CC/C(COC(=O)/C=C\C(=O)NCc1ccc(Cn3c(=O)sn(CCI)c3=O)cc1)=C\CC[C@@]1(C)O[C@@H]21

>  <RESULT>
3040 nM

$$$$
>  <MOLECULE>
CN(C)Cc1ccc(NC(=O)c2cncc(C#Cc3cnc(N)c4ncccc34)c2)cc1F

>  <RESULT>
1640 nM

$$$$
>  <MOLECULE>
Oc1[nH]c2ccccc2c1/C=c1/ccc2c(c1)N=C(c1ccc(C(F)(F)F)cc1)N=2

>  <RESULT>
1170 nM

$$$$
>  <MOLECULE>
COc1cc2c3c(n(CCCNCCCNCCN)c(=O)c2cc1OC)-c1cc2c(cc1C3=O)OCO2

>  <RESULT>
38000 nM

$$$$
>  <MOLECULE>
Clc1cccc(CNc2c3ccccc3nc3ccccc23)c1

>  <RESULT>
1670 nM

$$$$
>  <MOLECULE>
CCC(=O)N1C/C(=C/c2ccc(Br)cc2)C(=O)/C(=C/c2ccc(Br)cc2)C1

>  <RESULT>
524 nM

$$$$
>  <MOLECULE>
COc1cc2ncnc(Nc3ccc(Oc4ccnc(C)c4)c(C)c3)c2cc1NC(=O)CC1CCSS1 (stereo not given)

>  <RESULT>
976 nM

$$$$

====

- Tested on: MALME-3M melanoma
- RUN_DESCRIPTION: NCI tumour cell line growth inhibition, 48 h
Measured GI50 accompanies every entry in the list below.

>  <MOLECULE>
Fc1ccc(-c2nn3ccccc3c2-c2ccncc2)cc1

>  <GI50>
> 25000 nM

$$$$
>  <MOLECULE>
CCC(=O)N1C/C(=C/c2ccc(Br)cc2)C(=O)/C(=C/c2ccc(Br)cc2)C1

>  <GI50>
1690 nM

$$$$
>  <MOLECULE>
CCOc1ccc(C(C[N+](=O)[O-])Sc2ccccc2N)cc1 (stereo unspecified)

>  <GI50>
12300 nM

$$$$
>  <MOLECULE>
CCN1C(=O)N(CC)C2C1NN=c1s/c(=C3\C(=O)N(C4CCCC4)c4ccccc43)c(=O)n12 (stereo unspecified)

>  <GI50>
1260 nM

$$$$
>  <MOLECULE>
Cc1nc2sc3c(N)ncnc3c2c(C)c1C

>  <GI50>
> 25000 nM

$$$$
>  <MOLECULE>
COc1cc(-c2nc3ccccc3o2)cc(CN2CCCCC2)c1O

>  <GI50>
1800 nM

$$$$

====

- System: SF-295 CNS
- RUN_DESCRIPTION: NCI tumour cell line growth inhibition, 48 h
READOUT_NAME: TGI

>  <MOLECULE>
CC(=O)Oc1c2ccsc2c(OC(C)=O)c2ccsc12

>  <READOUT_NAME>
TGI

>  <RESULT>
2.41 µM

$$$$
>  <MOLECULE>
CC1(C)Cc2c(oc3ncnc(N)c23)CS1

>  <READOUT_NAME>
TGI

>  <RESULT>
> 100 µM

$$$$
>  <MOLECULE>
CC(=O)Nc1ccc(S(=O)(=O)N=S(C)C)cc1

>  <READOUT_NAME>
TGI

>  <RESULT>
> 100 µM

$$$$
>  <MOLECULE>
COc1ccc(-c2cn(-c3ccc(OC)c(OC)c3)c(=O)[nH]2)cc1

>  <READOUT_NAME>
TGI

>  <RESULT>
> 100 µM

$$$$
>  <MOLECULE>
O=C(CC1C(=O)Nc2ccccc2S1(=O)=O)Nc1ccc(Cl)cc1 (stereo unspecified)

>  <READOUT_NAME>
TGI

>  <RESULT>
> 100 µM

$$$$
>  <MOLECULE>
O=C1OCC(c2ccc(Cl)cc2)=C1Cl

>  <READOUT_NAME>
TGI

>  <RESULT>
> 100 µM

$$$$
>  <MOLECULE>
Cc1ccc(S(=O)(=O)N/N=C2\CCCCCCCCCCC2CN(C)C)cc1 (stereo unspecified)

>  <READOUT_NAME>
TGI

>  <RESULT>
30.9 µM

$$$$
>  <MOLECULE>
CCOC(=O)CCC(NC(=O)c1ccc(Oc2nc3c(N)cc(C(F)(F)F)cc3nc2-c2ccccc2)cc1)C(=O)OCC (stereo unspecified)

>  <READOUT_NAME>
TGI

>  <RESULT>
96.8 µM

$$$$
>  <MOLECULE>
CC/C(Cl)=N\OC(=O)Nc1ccc(OC)c(C)c1

>  <READOUT_NAME>
TGI

>  <RESULT>
> 100 µM

$$$$
>  <MOLECULE>
[N-]=[N+]=NCCCn1c2c(c3ccc([N+](=O)[O-])cc3c1=O)C(=O)c1cc(-c3ccccc3)ccc1-2

>  <READOUT_NAME>
TGI

>  <RESULT>
> 100 µM

$$$$
>  <MOLECULE>
CN(C)c1ccc(/C=N/c2nc3cc4sc(/N=C/c5ccc(N(C)C)cc5)nc4cc3s2)cc1

>  <READOUT_NAME>
TGI

>  <RESULT>
> 100 µM

$$$$

====

- Tested on: HCT-15 colon
- RUN_DESCRIPTION: NCI tumour cell line growth inhibition, 48 h

>  <COMPOUND>
c1ccc(-c2n(Cc3ccc4ccccc4c3)c3ccccc3[n+]2Cc2ccc3ccccc3c2)cc1

>  <GI50>
1.39 µM

$$$$
>  <COMPOUND>
COc1ccc(-c2cn(-c3ccc(OC)c(OC)c3)c(=O)[nH]2)cc1

>  <GI50>
> 100 µM

$$$$
>  <COMPOUND>
Nc1ncc(-c2ccc3ncnc(N4CCc5ccc(Cl)cc54)c3c2)cc1C(F)(F)F

>  <GI50>
1.3 µM

$$$$
>  <COMPOUND>
CS(=O)(=O)c1cccc(Nc2ncc3cc(-c4ccccc4Cl)ccc3n2)c1

>  <GI50>
0.821 µM

$$$$
>  <COMPOUND>
O=C(Nc1cc(Cl)cc(Cl)c1)c1cccc(NC2=C(Cl)C(=O)N(Cc3ccccc3)C2=O)c1

>  <GI50>
24 µM

$$$$
>  <COMPOUND>
Cc1nc2sc3c(N)ncnc3c2c(C)c1C

>  <GI50>
> 25 µM

$$$$
>  <COMPOUND>
O=C1Nc2ccccc2/C1=C\c1nc(-c2ccccc2F)n2ccccc12

>  <GI50>
13 µM

$$$$
>  <COMPOUND>
COc1cc2ncnc(Nc3ccc(Oc4ccnc(C)c4)c(C)c3)c2cc1NC(=O)CC1CCSS1 (stereo unspecified)

>  <GI50>
1.04 µM

$$$$
>  <COMPOUND>
COc1cc2c3c(n(CCCNCCCNCCN)c(=O)c2cc1OC)-c1cc2c(cc1C3=O)OCO2

>  <GI50>
> 100 µM

$$$$
>  <COMPOUND>
c1ccc(Oc2ccc(Nc3ncc(-c4ccccc4)o3)cc2)cc1

>  <GI50>
> 25 µM

$$$$
>  <COMPOUND>
O=C(Nc1cc(Cl)ccc1O)c1ccccc1Nc1ccnc(C(F)(F)F)c1

>  <GI50>
3.55 µM

$$$$
>  <COMPOUND>
Clc1cccc(CNc2c3ccccc3nc3ccccc23)c1

>  <GI50>
1.88 µM

$$$$
>  <COMPOUND>
N=C(N)c1ccc(-c2ccc(-c3ccc4ccccc4c3)s2)s1

>  <GI50>
1.69 µM

$$$$
>  <COMPOUND>
O=C1C=C(OCC=C(C(F)(F)F)C(F)(F)F)c2ccccc2C1=O

>  <GI50>
2.06 µM

$$$$
>  <COMPOUND>
CCCCCCCCCCCCN=C(N)c1ccc(N2CCN(c3ccc(C(N)=NCCCCCCCCCCCC)cc3)CC2)cc1

>  <GI50>
35 µM

$$$$
>  <COMPOUND>
O=C1Cc2cc(CCn3cncn3)c(Cl)cc2N1

>  <GI50>
9.59 µM

$$$$

====

- Tested on: SK-MEL-2 melanoma
- RUN_DESCRIPTION: NCI tumour cell line growth inhibition, 48 h
READOUT_NAME: GI50

>  <COMPOUND>
[N-]=[N+]=NCCCn1c2c(c3ccc([N+](=O)[O-])cc3c1=O)C(=O)c1cc(-c3ccccc3)ccc1-2

>  <READOUT_NAME>
GI50

>  <RESULT>
> 100 µM

$$$$
>  <COMPOUND>
CC1=C(C(=O)Nc2ccc(F)c(Cl)c2)C(c2cccc(Oc3ccccc3)c2)NC(=S)N1 (stereo not given)

>  <READOUT_NAME>
GI50

>  <RESULT>
9.72 µM

$$$$
>  <COMPOUND>
COc1ccc(C(=O)c2cc3c(N)c(C(=O)Nc4cccc(Br)c4C)sc3nc2C)cc1

>  <READOUT_NAME>
GI50

>  <RESULT>
1.54 µM

$$$$
>  <COMPOUND>
COc1ccc2c(O)c(/C=C3\N=Nc4ncccc43)oc2c1C[C@@H]1CCNC[C@H]1F

>  <READOUT_NAME>
GI50

>  <RESULT>
1.93 µM

$$$$
>  <COMPOUND>
O=C1NC2(CCCCC2)C(=O)N1CCN(CCCl)CCCl

>  <READOUT_NAME>
GI50

>  <RESULT>
13.3 µM

$$$$
